TR_FRET EKI G101V/WT selectivty ratio: recorded values
- Test system: BCL2 G101V
- Assay notes: TR-FRET competitive binding assay, BCL2 G101V
- Set-up: species or system human
- Condition: ratio Ki BCL2 G101V / Ki BCL2 WT
Observation type: TR_FRET EKI G101V/WT selectivty ratio

structure_string=Cc1c(N(C(=O)c2cc(-c3cc4c(cc3C(=O)N3Cc5ccccc5C[C@H]3CN3CCCCC3)CN(C(=O)Cc3ccc(OCCN5CCC(F)CC5)cc3F)CC4)n(C)c2C)c2ccc(O)cc2)cc(C#N)n1C observation_type="TR_FRET EKI G101V/WT selectivty ratio" obs_value=5.6
structure_string=Cc1c(N(C(=O)c2cc(-c3cc4c(cc3C(=O)N3Cc5ccccc5C[C@H]3C)CN(C(=O)Cc3ccc(Cl)cc3F)CC4)n(C)c2C)c2ccc(O)cc2)cc(C#N)n1C observation_type="TR_FRET EKI G101V/WT selectivty ratio" obs_value=4.8
structure_string=Cc1c(N(C(=O)c2cc(-c3cc4c(cc3C(=O)N3Cc5ccccc5C[C@H]3CN3CCCCC3)CN(C(=O)Cc3ccc(OCCN5CCOCC5)cc3F)CC4)n3ccccc23)c2ccc(O)cc2)cc(C#N)n1C observation_type="TR_FRET EKI G101V/WT selectivty ratio" obs_value=4.2

###

- System: BCL2 G101V
- Assay notes: TR-FRET competitive binding assay, BCL2 G101V
- Parameters: species or system human
- Condition: ratio Ki BCL2 G101V / Ki BCL2 WT
Observation type: TR_FRET EKI G101V/WT selectivty ratio

compound="Cc1c(N(C(=O)c2cc(-c3cc4c(cc3C(=O)N3Cc5ccccc5C[C@H]3CN3CCCCC3)CN(C(=O)Cc3ccc(OCCN5CCOCC5)cc3)CC4)n(C)c2C)c2ccc(O)cc2)cc(C#N)n1C [Example 67]" observation_type="TR_FRET EKI G101V/WT selectivty ratio" obs_value=6.3
compound="Cc1c(N(C(=O)c2cc(-c3cc4c(cc3C(=O)N3Cc5ccccc5C[C@H]3CN3CCCCC3)CN(C(=O)Cc3ccc(OCC(C)N5CCOCC5)cc3F)CC4)n(C)c2C)c2ccc(O)cc2)cc(C#N)n1C (single isomer, unassigned) [Example 135]" observation_type="TR_FRET EKI G101V/WT selectivty ratio" obs_value=5.8
compound="Cc1c(C(=O)N(c2ccccc2)c2cnn(C)c2)cc(-c2cc3c(cc2C(=O)N2Cc4ccccc4C[C@H]2C)CN(C(=O)Cc2ccc(OCCN4CCOCC4)cc2)CC3)n1C [Example 184]" observation_type="TR_FRET EKI G101V/WT selectivty ratio" obs_value=66.2
compound="Cc1c(N(C(=O)c2cc(-c3cc4c(cc3C(=O)N3Cc5ccccc5C[C@H]3C)CN(C(=O)Cc3ccc(OCCN5CCC(O)CC5)cc3)CC4)n(C)c2C)c2ccc(O)cc2)cc(C#N)n1C [Example 30]" observation_type="TR_FRET EKI G101V/WT selectivty ratio" obs_value=1.9
compound="Cc1c(C(=O)N(c2ccc(F)cc2)c2cnn(C)c2)cc(-c2cc3c(cc2C(=O)N2Cc4ccccc4C[C@H]2C)CN(C(=O)Cc2ccc(OCCN4CCOCC4)cc2)CC3)n1C [Example 200]" observation_type="TR_FRET EKI G101V/WT selectivty ratio" obs_value=88.0
compound="Cc1c(N(C(=O)c2cc(-c3cc4c(cc3C(=O)N3Cc5ccccc5C[C@H]3CN3CCCCC3)CN(C(=O)Cc3ccc(OCCN5CCO[C@H](C)C5)cc3)CC4)n(C)c2C)c2ccc(O)cc2)cc(C#N)n1C [Example 151]" observation_type="TR_FRET EKI G101V/WT selectivty ratio" obs_value=6.4
compound="Cc1c(N(C(=O)c2cc(-c3cc4c(cc3C(=O)N3Cc5ccccc5C[C@H]3C)CN(C(=O)Cc3ccc([C@H]5C[C@@H]5N5CCOCC5)cc3F)CC4)n(C)c2C)c2ccc(O)cc2)cc(C#N)n1C (single isomer, unassigned) [Example 70]" observation_type="TR_FRET EKI G101V/WT selectivty ratio" obs_value=8.4
